What IC50 was measured for each of the following?
- System: A375 cells (parental)
- assayMethodText: Dose-response curves and IC50, PrestoBlue cell viability, 72 h
- Format: cell-based, human
- recordedConditions: n.e. = did not suppress growth below 50% in the tested concentration range, read-out: Half-maximal inhibitory concentration value (IC50), Mean
Response body: numeric value in nM, unit text excluded.

### Prompt Look at this molecule and give its reported IC50. Nc1ncnc2c1c(-c1cnc3[nH]ccc3c1)nn2C1CCCC1 [PP-121, reference compound]
### Response 550

### Prompt Look up IC50 for this molecule: O=c1[nH]c2ccc(Cl)cc2c(N[C@@H]2CN3CCC2CC3)c1-c1nc2ccccc2[nH]1 [CHIR-124, reference compound]
### Response 233

### Prompt Given the molecule COc1ccc(-c2cc3c(C)nc(N)nc3n([C@H]3CC[C@H](OCCO)CC3)c2=O)cn1 [PF-04691502, reference compound] , what is its reported IC50?
### Response 298

### Prompt # IC50 lookup, item CNC(=O)c1c(F)cccc1Nc1nc(Nc2cc3c(cc2OC)CCN3C(=O)CN(C)C)nc2[nH]ccc12 [GSK1838705A, reference compound]
### Response 1200

### Prompt What value of IC50 has been reported for the following molecule? Cc1ccc([N+](=O)[O-])cc1S(=O)(=O)N(C)/N=C/c1cnc2ccc(Br)cn12 [PIK-75, reference compound]
### Response 55

### Prompt Name the recorded IC50 for CN1CC[C@H](c2c(O)cc(O)c3c(=O)cc(-c4ccccc4Cl)oc23)[C@H](O)C1.Cl [Flavopiridol HCL] .
### Response 112

### Prompt Data request, read-out IC50, for O=C(Cc1ccc(-c2ccc(OCCN3CCOCC3)cc2)cn1)NCc1ccccc1 [KX2-391, reference compound]
### Response 42

Hey, just so you know, these numbers are from paper PMC6364417.
